Reported composite z-score values for the following compounds.
# assay-remarks: compound binding in COS7 lysate, probe aLAP1, primary screen, cell lysate, small-molecule microarray (AID 1124);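 further: lysate comes from COS7 cells expressing LAP1 and is applied at 0.3 µg/mL; score merges spot fluorescence near 667 nm with signal-to-noise over triplicate slides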
# condition-set: probe aLAP1, fluorescence, higher = more signal

[
  {
    "compound": "COc1ccc(C(O)C2C=CC3C(=O)N(C)C(=O)C3N2Nc2ccccc2)cc1 (stereo not drawn)",
    "composite z-score": 0.388
  },
  {
    "compound": "CCOC(=O)C1=CC[C@@H](c2ccccc2)N(S(=O)(=O)c2ccc(C)cc2)[C@@H]1C#N",
    "composite z-score": -0.0567
  },
  {
    "compound": "COc1ccc(NN2C(C(O)c3ccccc3)C=CC3C(=O)N(C4CCCCC4)C(=O)C32)cc1 (stereo not drawn)",
    "composite z-score": 0.4
  },
  {
    "compound": "O=C1C[C@@](C(=O)NCC(F)(F)F)(c2ccc([N+](=O)[O-])cc2)[C@@H](c2ccc(CO)cc2I)N1CC12CC3CC(CC(C3)C1)C2",
    "composite z-score": 1.15
  },
  {
    "compound": "COc1ccc(-c2cc3c(c(CCc4ccccc4)n2)[Si](C(C)C)(C(C)C)O[C@H]3c2ccccc2)cn1",
    "composite z-score": 0.0028
  },
  {
    "compound": "NCCCCCCNC(=O)[C@@H]1C[C@@H]2C(=O)NCC(=O)N2[C@@H]1c1cccc(OCCO)c1",
    "composite z-score": 0.758
  },
  {
    "compound": "[N-]=[N+]=NCc1ccccc1[C@H]1OC(c2ccc(OCCCO)cc2)=N[C@@]1(Cc1ccccc1N=[N+]=[N-])C(N)=O",
    "composite z-score": -0.182
  },
  {
    "compound": "C=CCNC(=O)[C@@H]1[C@H]2C(=O)O[C@H](c3ccccc3)[C@H](c3ccccc3)N2[C@H](c2ccc(OCCO)cc2)[C@@]12C(=O)Nc1ccc(C#CCNC(N)=O)cc12",
    "composite z-score": 0.268
  },
  {
    "compound": "OCCCc1cc[n+](Cc2cc3c(cc2Br)OCO3)cc1",
    "composite z-score": 0.324
  },
  {
    "compound": "C=CC[C@]1(C(=O)NCCN2CCOCC2)N=C(c2ccc(OCCCO)cc2)O[C@H]1c1ccccc1",
    "composite z-score": 0.601
  },
  {
    "compound": "C=CCNC(=O)[C@H]1[C@@H]2C(=O)O[C@@H](c3ccccc3)[C@@H](c3ccccc3)N2[C@@H](c2ccc(OCCO)cc2)[C@]12C(=O)Nc1ccc(C#Cc3ccc(OC)cc3)cc12",
    "composite z-score": 0.315
  },
  {
    "compound": "C[C@H]1C2[C@H](Cc3ccccc3)NC(=O)[C@]23C(=O)N[C@@H](Cc2ccccc2)C(=O)N2CCC[C@H]2C(=O)NC/C=C/CC/C=C/C3[C@@H]2O[C@]12C (stereo partly drawn)",
    "composite z-score": 0.472
  },
  {
    "compound": "C=CCOC(=O)[C@H]1[C@@H]2C(=O)O[C@@H](c3ccccc3)[C@@H](c3ccccc3)N2[C@@H](c2ccc(OCCOC(=O)[C@H]3C[C@H]4C(=O)NCC(=O)N4[C@H]3c3ccc(O)cc3)cc2)[C@]12C(=O)Nc1ccccc12",
    "composite z-score": 0.96
  },
  {
    "compound": "COCCOC(=O)N1C(=O)[C@@]2(c3cc(C#CCNC(N)=O)ccc31)[C@H](C(N)=O)[C@H]1C(=O)O[C@H](c3ccccc3)[C@H](c3ccccc3)N1[C@@H]2c1ccc(O)cc1",
    "composite z-score": -0.545
  },
  {
    "compound": "CN1C(=O)C2C(C1=O)C1C=C(CCCO)C2C(C2CC2)N1C (stereo not drawn)",
    "composite z-score": -0.67
  },
  {
    "compound": "Cc1cccc([C@H]2C[C@H]3C(Br)=C[C@@]2(CO)C(=O)[C@]32CO2)c1",
    "composite z-score": -0.24
  },
  {
    "compound": "C[C@@]1([C@@H](NS(=O)(=O)c2cccc3cccnc23)c2ccc(-c3ccccc3)cc2)C[C@H]1C1CCCCC1",
    "composite z-score": 0.165
  },
  {
    "compound": "COCCOC(=O)N1C(=O)[C@@]2(c3cc(C#CC4=CCCCC4)ccc31)[C@H](C(=O)N1CCCCCCC1)[C@H]1C(=O)O[C@H](c3ccccc3)[C@H](c3ccccc3)N1[C@@H]2c1ccccc1OCCO",
    "composite z-score": 1.2
  },
  {
    "compound": "COC(=O)[C@@]1(Cc2ccc(F)cc2)[C@H]2c3cc(C(=O)N4CCCC4)n(CCSCCO)c3C[C@H]2CN1C(=O)c1ccccc1",
    "composite z-score": 0.258
  },
  {
    "compound": "O=C1O[C@H](c2ccccc2)[C@H](c2ccccc2)N2[C@H]1[C@@H](C(=O)Nc1nc3ccccc3s1)[C@]1(C(=O)Nc3ccccc31)[C@H]2c1ccccc1OCCO",
    "composite z-score": 0.921
  },
  {
    "compound": "CN(C)C(=O)[C@]1(CCS(=O)(=O)c2ccccc2)N=C(c2ccc(OCCCO)cc2)O[C@@H]1c1ccccc1CN=[N+]=[N-]",
    "composite z-score": 0.766
  },
  {
    "compound": "C=CCC(OC(C)=O)[C@@H]1[C@@H](N(Cc2cccc3ccccc23)C(=O)c2ccc(C)cc2)c2cc(OCCCO)ccc2N1C(=O)Cc1ccc2ccccc2c1 (stereo partly drawn)",
    "composite z-score": -0.0124
  },
  {
    "compound": "COc1ccc([Si](C)(C)[C@H]2[C@H](CC(=O)N(CCO)Cc3ccccc3)O[C@@]3(C(=O)N(c4ccccc4)c4ccccc43)[C@@H]2C)cc1",
    "composite z-score": 0.264
  },
  {
    "compound": "CN1C(=O)C2C=CC(C(O)c3ccc(I)cc3)N(N(c3ccccc3)c3ccccc3)C2C1=O (stereo not drawn)",
    "composite z-score": 0.249
  },
  {
    "compound": "CC(=O)NCCCC[C@@H]1NC(=O)[C@H]2C[C@@H](C(=O)O)[C@@H](c3cccc(OCCO)c3)N2C1=O",
    "composite z-score": 1.32
  },
  {
    "compound": "C=C[C@H](C)[C@@H](OC(=O)Nc1ccc(SC)cc1)c1ccc(OCCO)cc1",
    "composite z-score": 0.471
  },
  {
    "compound": "C[C@]1(C(=O)NC2CC2)c2ccccc2C(=O)N(Cc2cc(F)cc(C(F)(F)F)c2)[C@H]1c1ccc(CO)cc1",
    "composite z-score": 0.522
  },
  {
    "compound": "C=CCC(OC(C)=O)[C@@H]1[C@@H](N(Cc2ccc(-c3ccccc3)cc2)C(=O)Cc2ccc(OC)cc2)c2cc(OCCCO)ccc2N1C(=O)Cc1ccc(OC)cc1 (stereo partly drawn)",
    "composite z-score": 0.302
  }
]

* * *

# Tested on: Inhibin beta A chain (activin A)
# assay-remarks: INHBA (activin A) binders on microarrays, primary screen, biochemical, small-molecule microarray, 635 nm fluorescence scan (AID 1107);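 further: mouse activin A protein probed at 4.33 µg/mL on printed slides; score merges bound-protein fluorescence near 667 nm with spot signal-to-noise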
# condition-set: small-molecule microarray binding, higher = more signal
Reported composite z-score values for the following compounds.

[
  {
    "compound": "O=C1O[C@@H](c2ccccc2)[C@@H](c2ccccc2)N2[C@@H](c3ccc(OCCO)cc3)[C@]3(C(=O)Nc4ccc(C#CC5=CCCCC5)cc43)[C@@H](C(=O)Nc3nc4ccccc4s3)[C@H]12",
    "composite z-score": -0.289
  },
  {
    "compound": "C=CCOC(=O)[C@H]1[C@@H]2C(=O)O[C@@H](c3ccccc3)[C@@H](c3ccccc3)N2[C@@H](c2ccc(OCCOC(=O)[C@H]3C[C@H]4C(=O)NCC(=O)N4[C@H]3c3cccc(OCCO)c3)cc2)[C@]12C(=O)Nc1ccc(I)cc12",
    "composite z-score": 0.622
  },
  {
    "compound": "COc1cc(Cc2cc3c(c(-c4ccccc4)n2)[Si](C(C)C)(C(C)C)OC3)cc(OC)c1OC",
    "composite z-score": 1.23
  },
  {
    "compound": "C=C(CC1([C@@H](NP(=O)(c2ccccc2)c2ccccc2)[C@H]2C[C@@H]2CCCC)CC1)c1cccc(OC)c1",
    "composite z-score": 1.03
  },
  {
    "compound": "COC(=O)[C@@]1(Cc2ccc(F)cc2)[C@H]2c3cc(C(=O)N4CCCC4)n(Cc4ccc(OC(F)(F)F)cc4)c3C[C@H]2CN1C(=O)c1ccccc1",
    "composite z-score": 0.602
  },
  {
    "compound": "COC(=O)[C@@]1(Cc2ccccc2)[C@H]2c3cc(C(=O)N(C)C)n(CCF)c3C[C@H]2CN1C(=O)c1ccccc1",
    "composite z-score": -0.711
  },
  {
    "compound": "[N-]=[N+]=Nc1ccccc1C[C@]1(C(N)=O)COC(c2ccc(OCCCO)cc2)=N1",
    "composite z-score": 1.13
  },
  {
    "compound": "C=C(COC)C(=O)CC[C@H](OC(C)=O)c1ccccc1OCCO",
    "composite z-score": 1.13
  },
  {
    "compound": "CC[C@@H](O[Si](C#C[Si](C(C)C)(C(C)C)C(C)C)(C(C)C)C(C)C)c1cn([C@H](CO)Cc2ccccc2)nn1",
    "composite z-score": -0.092
  },
  {
    "compound": "COc1ccc([Si](C)(C)[C@H]2[C@H](CC(=O)N3CCC[C@H]3CO)O[C@@]3(C(=O)N(C)c4c(Br)cc(C)cc43)[C@@H]2C)cc1",
    "composite z-score": 1.34
  },
  {
    "compound": "CCCCN1CC=CC23O[C@@H]4C=CCCOC(=O)C4[C@H]2C(=O)N(CCO)[C@@H]3C1=O (some centres undefined)",
    "composite z-score": 0.0542
  },
  {
    "compound": "C=CCNC(=O)[C@@H]1[C@H]2C(=O)O[C@H](c3ccccc3)[C@H](c3ccccc3)N2[C@H](c2ccc(OCCO)cc2)[C@@]12C(=O)N(C(=O)OCCOC)c1ccccc12",
    "composite z-score": 0.745
  },
  {
    "compound": "Cc1c(NC(=O)/C(C#N)=C/C=C/c2ccc([N+](=O)[O-])cc2)c(=O)n(-c2ccccc2)n1C",
    "composite z-score": 0.256
  },
  {
    "compound": "COc1ccc([Si](C)(C)[C@@H]2[C@@H](CC(=O)N3CCC[C@H]3CO)O[C@]3(C(=O)N(Cc4cccc(N5C(=O)c6cccc7cccc5c67)c4)c4ccccc43)[C@H]2C)cc1",
    "composite z-score": 0.608
  }
]
